target: D2 receptors from African Green monkey; assay: D2 receptor binding (displacement of 3H-YM 09151-2); settings: COS cells with recombinant D2 receptors; 0.5 nM 3H-YM 09151-2; nonspecific binding with 1 mM spiperone
Where a name gives a salt, the structure may show the parent alone.
measured endpoint: Ki (nM)

[P] O=C(NCCCCN1CCN(c2cccc3ccccc23)CC1)c1ccc2c(c1)-c1ccccc1-2 [Compound 3, dihydrochloride]
[Q] COc1ccccc1N1CCN(CCCCNC(=O)c2ccc3c(c2)-c2ccccc2-3)CC1 [Compound 1]
// query Between P and Q , which one shows the smaller Ki number? Your answer should be the label of the entry you select.
// result P
